Values were extracted from patent US10464978B2.

Target: HLA-A*02:01 (Homo sapiens, UniProt P04439, D140Y/D185E/D98H/E176V/E277Q/G131W/G231S/I119V/I121R/I166T/I218V/L300P/L318F/N151K/N90K/P208A/P217A/Q86G/Q94H/R138H/R169H/T345S)
Assay: MHC binding assay: UV-ligand exchange with beta2m ELISA (peptide exchange yield)
Settings: binding to HLA-A*02:01
READOUT_TYPE: Peptide exchange (MHC class I binding score, peptide exchange yield)

SUBSTANCE	RESULT
111 (YVWGFYPAEV; listed as Homo sapiens) [compound 111]	“+++” (≥50 = +++)
26 (ALLELAEEL; listed as Homo sapiens) [compound 26]	“+++” (≥50 = +++)
506 (KLLGKVETA; listed as Homo sapiens) [compound 506]	“+++” (≥50 = +++)

###

Target: HLA-A*02:01 (Homo sapiens, UniProt P04439, D140Y/D185E/D98H/E176V/E277Q/G131W/G231S/I119V/I121R/I166T/I218V/L300P/L318F/N151K/N90K/P208A/P217A/Q86G/Q94H/R138H/R169H/T345S)
Experiment: MHC binding assay: UV-ligand exchange with beta2m ELISA (peptide exchange yield)
Conditions: binding to HLA-A*02:01
READOUT_TYPE: Peptide exchange (MHC class I binding score, peptide exchange yield)

// solved cases for Peptide exchange (MHC class I binding score, peptide exchange yield) follow
SUBSTANCE	RESULT
322 (TLMTSLPAL; listed as Homo sapiens) [compound 322]	“+++” (≥50 = +++)
364 (LLQNEQFEL; listed as Homo sapiens) [compound 364]	“+++” (≥50 = +++)
48 (ALAELYEDEV; listed as Homo sapiens) [compound 48]	“+++” (≥50 = +++)
258 (ELAERVPAI; listed as Homo sapiens) [compound 258]	“++” (≥20% = ++)
569 (KLVDRTWTL; listed as Homo sapiens) [compound 569]	“+++” (≥50 = +++)
17 (GLLPGDRLVSV; listed as Homo sapiens) [compound 17]	“+++” (≥50 = +++)
523 (YQIPRTFTL; listed as Homo sapiens) [compound 523]	“++” (≥20% = ++)

Consider the additional substance presented here.
Record summary for 458 (SLIDKLYNI; listed as Homo sapiens) [compound 458] : reported Peptide exchange (MHC class I binding score, peptide exchange yield) = “++” (≥20% = ++)

###

Biological target: HLA-A*02:01 (Homo sapiens, UniProt P04439, D140Y/D185E/D98H/E176V/E277Q/G131W/G231S/I119V/I121R/I166T/I218V/L300P/L318F/N151K/N90K/P208A/P217A/Q86G/Q94H/R138H/R169H/T345S)
Assay: MHC binding assay: UV-ligand exchange with beta2m ELISA (peptide exchange yield)
Conditions: binding to HLA-A*02:01
READOUT_TYPE: Peptide exchange (MHC class I binding score, peptide exchange yield)

SUBSTANCE	RESULT
358 (ALDEYTSEL; listed as Homo sapiens) [compound 358]	“++++” (≥75% = ++++)
278 (QLLDVVLTI; listed as Homo sapiens) [compound 278]	“++” (≥20% = ++)
400 (SLLTEQDLWTV; listed as Homo sapiens) [compound 400]	“++” (≥20% = ++)
522 (TLWYRSPEV; listed as Homo sapiens) [compound 522]	“++” (≥20% = ++)
595 (VLLSIYPRV; listed as Homo sapiens) [compound 595]	“+++” (≥50 = +++)
182 (MLLEAPGIFL; listed as Homo sapiens) [compound 182]	“+++” (≥50 = +++)
16 (VLFQGQASL; listed as Homo sapiens) [compound 16]	“+++” (≥50 = +++)
66 (FLDENIGGVAV; listed as Homo sapiens) [compound 66]	“+++” (≥50 = +++)
567 (SLLPLDDIVRV; listed as Homo sapiens) [compound 567]	“+++” (≥50 = +++)
462 (KLAKQPETV; listed as Homo sapiens) [compound 462]	“+++” (≥50 = +++)

Hi there! I need Peptide exchange (MHC class I binding score, peptide exchange yield) for each item below, if you can.
1. 1 (SLMEPPAVLLL; listed as Homo sapiens) [compound 1]
2. 448 (NLLETKLQL; listed as Homo sapiens) [compound 448]
3. 275 (YLVYILNEL; listed as Homo sapiens) [compound 275]
4. 613 (RLLPPGAVVAV; listed as Homo sapiens) [compound 613]
5. 315 (YLQDVVEQA; listed as Homo sapiens) [compound 315]

[reply]
["“+++” (≥50 = +++)", "“+++” (≥50 = +++)", "“++” (≥20% = ++)", "“+++” (≥50 = +++)", "“+++” (≥50 = +++)"]

Please go through the list and note Peptide exchange (MHC class I binding score, peptide exchange yield) for each substance.
1. 366 (RLLDMGETDLML; listed as Homo sapiens) [compound 366]
2. 616 (VLIDEVESL; listed as Homo sapiens) [compound 616]
3. 340 (ALLSMTFPL; listed as Homo sapiens) [compound 340]
4. 334 (TLTKVLVAL; listed as Homo sapiens) [compound 334]
5. 193 (QLLDADGFLNV; listed as Homo sapiens) [compound 193]
6. 502 (RLLAQVPGL; listed as Homo sapiens) [compound 502]
7. 95 (SVIPQIQKV; listed as Homo sapiens) [compound 95]

[reply]
1: “+++” (≥50 = +++); 2: “+++” (≥50 = +++); 3: “++++” (≥75% = ++++); 4: “+++” (≥50 = +++); 5: “+++” (≥50 = +++); 6: “+++” (≥50 = +++); 7: “+++” (≥50 = +++)

Provide reported Peptide exchange (MHC class I binding score, peptide exchange yield) for each item, in the same order as listed.
1. 86 (NLIGKIENV; listed as Homo sapiens) [compound 86]
2. 449 (KLAEGLDIQL; listed as Homo sapiens) [compound 449]

[reply]
["“+++” (≥50 = +++)", "“+++” (≥50 = +++)"]

Quick request: Peptide exchange (MHC class I binding score, peptide exchange yield) for each listed item, please.
1. 531 (YTLPIASSIRL; listed as Homo sapiens) [compound 531]
2. 609 (ALWKQLLEL; listed as Homo sapiens) [compound 609]
3. 45 (SLWQDIPDV; listed as Homo sapiens) [compound 45]
4. 15 (VLLTFKIFL; listed as Homo sapiens) [compound 15]
5. 319 (SLEPQIQPV; listed as Homo sapiens) [compound 319]
6. 63 (YLLPSGGSVTL; listed as Homo sapiens) [compound 63]
7. 571 (LLLTTIPQI; listed as Homo sapiens) [compound 571]

[reply]
“+++” (≥50 = +++)
“+++” (≥50 = +++)
“+++” (≥50 = +++)
“++” (≥20% = ++)
“++” (≥20% = ++)
“++” (≥20% = ++)
“+++” (≥50 = +++)
